Source listed as PubChem BioAssay AID179.

Record form. Attribute: log10 IC50. Fill in for each entry.
test system: CEM cells HIV-1 protection, formazan growth assay; test: NCI AIDS Antiviral Assay; conditions: measured here: growth of uninfected CEM cells
Note the log scale: values are log10 of IC50 expressed in µM.

Problem: Return log10 IC50 for the following compound: Cc1ccc(Nc2sc(C)cc2C#N)c([N+](=O)[O-])c1
Result: 2.25

Problem: Return log10 IC50 for the following compound: O=C1/C(=C/c2ccc(Cl)cc2)Oc2cc(O)ccc21
Result: 1.57

Problem: Return log10 IC50 for the following compound: Cc1cc(=O)[nH]c(NNC(C#N)c2ccccc2O)n1 (stereo unspecified)
Result: -0.42

Problem: Return log10 IC50 for the following compound: O=C1/C(=C/c2ccccc2)CSC/C1=C\c1ccccc1
Result: 0.38

Problem: Return log10 IC50 for the following compound: O=[N+]([O-])c1ccccc1S(=O)(=O)c1ccccc1[N+](=O)[O-]
Result: 2.16

Problem: Return log10 IC50 for the following compound: CCN(CC)CCC(=O)OC1C(C)=CC(C)C(=O)CC(C(C)CC2CCC(O)C(OC)C2)OC(=O)C2CCCCN2C(=O)C(=O)[C@@]2(O)OC(CCC2C)CC(OC)\C(C)=C/C=C/C=C/C(C)CC(C)C(=O)C1OC (stereo partly specified)
Result: 0.96

Problem: Return log10 IC50 for the following compound: OCC1OC(n2cnc3c(Cl)nc(Nc4ccccc4)nc32)CC1O (stereo unspecified)
Result: 1.45

Problem: Return log10 IC50 for the following compound: COc1ccccc1NC(=O)/C(=C/n1c(=S)[nH]c2cc(C)ccc21)C(C)=O
Result: 2.18

Problem: Return log10 IC50 for the following compound: COC(=O)/C=C/C(=O)/C=C/COC(=O)c1ccccc1
Result: 1.79

====

tested on: CEM cells HIV-1 protection, formazan growth assay; test: NCI AIDS Antiviral Assay; conditions: measured here: growth of uninfected CEM cells
property.label: pIC50
Scale: pIC50 equals -log10([C]), with [C] in mol/L.

Problem: Look up and report pIC50, with CEM cells HIV-1 protection, formazan growth assay as system, for CC1(C)OP(=O)(c2ccccc2)C=C1Sc1ccc([N+](=O)[O-])cc1[N+](=O)[O-] (centres undefined)
Result: 3.98

Problem: Look up and report pIC50, with CEM cells HIV-1 protection, formazan growth assay as system, for Cc1ccc2c(c1)CC1(Cc3ccccc3C1=O)C2=O (centres undefined)
Result: 3.71

Problem: Look up and report pIC50, with CEM cells HIV-1 protection, formazan growth assay as system, for CCOP(=O)(OCC)C(c1ccccc1)N(C(=O)NC(F)(F)F)c1cccc(F)c1 (centres undefined)
Result: 4.02

Problem: Look up and report pIC50, with CEM cells HIV-1 protection, formazan growth assay as system, for O=C(O)c1ccccc1O
Result: 3.16

Problem: Look up and report pIC50, with CEM cells HIV-1 protection, formazan growth assay as system, for O=C(NS(=O)(=O)Nc1ccccc1)OC(c1ccccc1)c1ccccc1
Result: 4.15

====

tested on: CEM cells HIV-1 protection, formazan growth assay; assay: NCI AIDS Antiviral Assay; details: measured here: growth of uninfected CEM cells
Record form. Attribute: IC50. Fill in for each entry.

Problem: Look up and report IC50, with CEM cells HIV-1 protection, formazan growth assay as system, for CCCCCCCCCCCc1c(O)c(O)cc2nc3ccc(Sc4ccccc4)cc3nc12
Result: 4.57 µM

Problem: Look up and report IC50, with CEM cells HIV-1 protection, formazan growth assay as system, for CCC[n+]1nc2ccccc2c(=Nc2ccccc2[N+](=O)[O-])[n-]1
Result: > 23.4 µM

Problem: Look up and report IC50, with CEM cells HIV-1 protection, formazan growth assay as system, for CCC(=O)OC1C(OC2C(C)C(OC3CC(C)(OC)C(O)C(C)O3)C(C)C(=O)OC(CC)C(C)(O)C(O)C(C)C(=O)C(C)CC2(C)O)OC(C)CC1N(C)C (centres undefined)
Result: 70.8 µM

Problem: Look up and report IC50, with CEM cells HIV-1 protection, formazan growth assay as system, for CCOC(=O)NC(C)(C)CN(CCO)C(=O)OCC
Result: > 200 µM

Problem: Look up and report IC50, with CEM cells HIV-1 protection, formazan growth assay as system, for COc1ccc(C(=O)c2ccc(OC)c(S(=O)(=O)O)c2)cc1S(=O)(=O)O
Result: > 575 µM

Problem: Look up and report IC50, with CEM cells HIV-1 protection, formazan growth assay as system, for CC(C)[C@@H](C)/C=C/[C@@H](C)C1CC2C3=CC=C4C[C@@H](OC5OCC(O)C6OC(=O)C(=O)OC56)CC[C@]4(C)C3CC[C@]2(C)C1 (some centres undefined)
Result: 11 µM

Problem: Look up and report IC50, with CEM cells HIV-1 protection, formazan growth assay as system, for COC12C=CC(CC1)C(C)(C)C2O (centres undefined)
Result: > 200 µM

Problem: Look up and report IC50, with CEM cells HIV-1 protection, formazan growth assay as system, for Cc1ccc(N(C(=O)Nc2ccc(F)c(Cl)c2)C2=NCC(C)S2)cc1 (centres undefined)
Result: 186 µM

Problem: Look up and report IC50, with CEM cells HIV-1 protection, formazan growth assay as system, for CCOC(=O)C(C)Sc1nnc(COc2ccccc2OC)n1-c1ccccc1 (centres undefined)
Result: 162 µM

Problem: Look up and report IC50, with CEM cells HIV-1 protection, formazan growth assay as system, for Cn1cncc1CC1COC(=O)C1C(O)c1ccccc1 (centres undefined)
Result: > 200 µM

Problem: Look up and report IC50, with CEM cells HIV-1 protection, formazan growth assay as system, for CC/C=N\N=C(N)N
Result: 30.2 µM

Problem: Look up and report IC50, with CEM cells HIV-1 protection, formazan growth assay as system, for OC[C@@H](O)[C@@H](O)c1cnn(-c2ccccc2)n1
Result: > 200 µM

Problem: Look up and report IC50, with CEM cells HIV-1 protection, formazan growth assay as system, for COc1nc2c(c(=O)n1C)N[C@@H]1[C@@H](O)[C@H](O)CO[C@@H]1N2
Result: > 200 µM

Problem: Look up and report IC50, with CEM cells HIV-1 protection, formazan growth assay as system, for O=C1CN(CCN2CCOCC2)CC(=O)N2Cc3ccccc3CN12
Result: > 200 µM

Problem: Look up and report IC50, with CEM cells HIV-1 protection, formazan growth assay as system, for Nc1nc[n+](Cc2ccccc2)c2ncn(Cc3ccccc3)c12
Result: 95.5 µM

Problem: Look up and report IC50, with CEM cells HIV-1 protection, formazan growth assay as system, for CCOC(=O)C[C@@H](C)[C@]1(C(=O)OC)CCCC1=O
Result: > 708 µM

Problem: Look up and report IC50, with CEM cells HIV-1 protection, formazan growth assay as system, for C=CC1(O)CC(n2cc(C)c(=O)[nH]c2=O)OC1CO (centres undefined)
Result: > 200 µM

Problem: Look up and report IC50, with CEM cells HIV-1 protection, formazan growth assay as system, for NCCCCC(=O)NC(CCCCNC(=O)OCc1ccccc1)C(=O)NCCCCC(=O)NC(CCCCNC(=O)OCc1ccccc1)C(=O)NCCCCC(=O)NC(CCCCNC(=O)OCc1ccccc1)C(=O)NCCCCC(=O)NC(CCCCNC(=O)OCc1ccccc1)C(=O)NCCCCC(=O)NC(CCCCNC(=O)OCc1ccccc1)C(=O)NCCCCC(=O)NC(CCCCNC(=O)OCc1ccccc1)C(=O)NCCCCC(=O)NC(CCCCNC(=O)OCc1ccccc1)C(=O)O (centres undefined)
Result: > 7.08 µM

Problem: Look up and report IC50, with CEM cells HIV-1 protection, formazan growth assay as system, for C=Cc1ccccn1
Result: > 200 µM

====

Tested on: CEM cells HIV-1 protection, formazan growth assay
Test: NCI AIDS Antiviral Assay
Protocol: The ability of compounds to protect human CEM cells from HIV-1 infection is measured as a screen for new compounds capable of inhibiting the HIV virus. Five concentrations of drug were tested on uninfected and infected cells and cell growth was measured using a soluble formazan assay. […] Compounds that provided at least 50% protection were retested. Compounds that provided at least 50% protection on retest were listed as moderately active. […]
Where a SMILES comes first, the peptide text is derived from it. [ ]: non-standard residue; d: D form. The star is where a group is joined. AllylGly = C=CC[CH](N)C(=O)O; Boc = CC(C)(C)OC(=O)*; OtBu = CC(C)(C)O*
property.label: EC50

Problem: Return EC50 for the following molecule: Clc1ccc(C[P+](c2ccccc2)(c2ccccc2)c2ccccc2)cc1Cl
Result: > 200 µM

Problem: Return EC50 for the following molecule: NCCCCC(=O)NC(CCCCNC(=O)OCc1ccccc1)C(=O)NCCCCC(=O)NC(CCCCNC(=O)OCc1ccccc1)C(=O)NCCCCC(=O)NC(CCCCNC(=O)OCc1ccccc1)C(=O)NCCCCC(=O)NC(CCCCNC(=O)OCc1ccccc1)C(=O)NCCCCC(=O)NC(CCCCNC(=O)OCc1ccccc1)C(=O)O (centres undefined)
Result: > 14.1 µM

Problem: Return EC50 for the following molecule: N#CSC1=C(SC#N)C(=O)c2ccccc2C1=O
Result: > 200 µM

Problem: Return EC50 for the following molecule: C=CC(=O)NCCSSCCNC(=O)C=C
Result: > 200 µM

Problem: Return EC50 for the following molecule: CC1(C)CC(=O)C2=C(C1)OC1=C(C(=O)CC(C)(C)C1)C2C(O)C(O)C(O)CO (centres undefined)
Result: > 200 µM

Problem: Return EC50 for the following molecule: S=C1N(c2ccc(Br)cc2)C2=Nc3ccccc3SC(=C2N=Nc2ccc(Br)cc2)N1c1ccc(Cl)cc1
Result: > 32.4 µM

Problem: Return EC50 for the following molecule: CN1C(=O)CNC(=O)c2ncn(C3OC(CO)C(O)C3O)c21 (centres undefined)
Result: > 229 µM

Problem: Return EC50 for the following molecule: Cc1ccc(OCC2OC(n3cnc4c(Cl)ncnc43)CC2Oc2ccc(C)cc2)cc1 (centres undefined)
Result: > 200 µM

Problem: Return EC50 for the following molecule: CNCc1cc(OC)ccc1-c1ccc(OC)c(OC)c1OC
Result: > 708 µM

Problem: Return EC50 for the following molecule: Cn1c(N)nc(-c2ccc(Cl)cc2)c1SSc1c(-c2ccc(Cl)cc2)nc(N)n1C
Result: > 200 µM

Problem: Return EC50 for the following molecule: CC(C)(C)[Si](C)(C)OCC1OC(n2cnc3c(=O)[nH]c(NCc4cccc5ccccc45)nc32)C(O[Si](C)(C)C(C)(C)C)C1O[Si](C)(C)C(C)(C)C (centres undefined)
Result: > 200 µM

Problem: Return EC50 for the following molecule: Cc1c(C#N)c(=N)oc2ccccc12
Result: > 200 µM

Problem: Return EC50 for the following molecule: CC(=O)/C(=C/c1ccccc1F)C(=O)c1ccccc1
Result: > 26.9 µM

Problem: Return EC50 for the following molecule: COc1ccc(C2=Nc3ccccc3N=C(SC)C2)cc1
Result: 2.4 µM

Problem: Return EC50 for the following molecule: COc1cc(OCc2ccc3nc(-c4ccccc4)c(Cl)nc3c2)cc(OC)c1OC
Result: > 200 µM

Problem: Return EC50 for the following molecule: O=C(CCc1ccccc1)ON1C(=S)C(c2ccccc2)(c2ccccc2)N=C1Sc1ccccc1
Result: > 200 µM

Problem: Return EC50 for the following molecule: CC(CCCOC(c1ccccc1)(c1ccccc1)c1ccccc1)OC(=O)Nc1ccccc1 (centres undefined)
Result: > 28.8 µM

Problem: Return EC50 for the following molecule: Cc1c(C(=O)O)c2cc3ccccc3cc2c(=O)n1C
Result: > 200 µM

Problem: Return EC50 for the following molecule: C=CCC(NC(=O)C(CC(=O)OC(C)(C)C)NC(=O)OC(C)(C)C)C(=O)OC (centres undefined) (Boc-Asp(OtBu)-[AllylGly]-OMe; configuration not given here)
Result: > 200 µM
